Ref: patent US20110250135A1

Assay: Biodistribution: organ distribution of F-18 signal in mice
Format: in vivo, male NMRI mice
Details: stomach (without content), 5 min post i.v. injection
Answer FALSE if Organ distribution of F-18 signal, stomach is under 4 % ID/g, and TRUE if it is 4 % ID/g or more.

Test whether the molecule O=C(NCC(=O)N1CCN(c2ccc(OCc3ccccc3)cc2)CC1)c1cccc(OCC[18F])c1 records Organ distribution of F-18 signal, stomach of 4 % ID/g or higher.
TRUE

Test whether the molecule O=C(NCC(=O)N1CCN(c2ccc(OCc3ccccc3)cc2)CC1)c1ccc([18F])nc1 [Example 10e] records Organ distribution of F-18 signal, stomach of 4 % ID/g or higher.
FALSE

Test whether the molecule O=C(NCC(=O)N1CCN(c2ccc(OCc3ccccc3)cc2)CC1)c1cccnc1[18F] [Example 12c] records Organ distribution of F-18 signal, stomach of 4 % ID/g or higher.
FALSE

Test whether the molecule O=C(NCC(=O)N1CCN(c2ccc(OCc3ccccc3)cn2)CC1)c1ccnc([18F])c1 [Example 14f] records Organ distribution of F-18 signal, stomach of 4 % ID/g or higher.
FALSE

Test whether the molecule O=C(NCC(=O)N1CCN(c2ccc(OCc3ccccc3)cc2)CC1)c1ccnc([18F])c1 [Example 11c] records Organ distribution of F-18 signal, stomach of 4 % ID/g or higher.
FALSE
